# System: HCT-15 colon
# run description: NCI tumour cell line growth inhibition, 48 h
In this section we review reported TGI values for a set of compounds.

CC(=O)[CH-]C(=O)c1ccccc1.CC(=O)[CH-]C(=O)c1ccccc1.CC[C@H](CCC(C)[C@H]1CCC2[C@@H]3CC=C4C[C@@H]([O-])CC[C@]4(C)C3CC[C@@]21C)C(C)C.CC[C@H](CCC(C)[C@H]1CCC2[C@@H]3CC=C4C[C@@H]([O-])CC[C@]4(C)C3CC[C@@]21C)C(C)C.Cl.[Ti+4] (some centres not stated): > 25 µM
COC(=O)CSc1cc(Cl)c(C)cc1S(=O)(=O)Nc1n[nH]c(N)n1: > 10 µM
Oc1ccc(/C=N/NC(=S)Nc2ccccc2)nc1: > 100 µM

Here is the next item to consider.
-- ask Given the compound COc1ccc(/C=C/C(=O)C(=O)/C=C/c2ccc(OC)c(OC)c2)cc1OC , what is its reported TGI?
-- reply 6.18 µM

* * *

In this section we review reported TGI values for a set of compounds.
# Tested on: OVCAR-8 ovarian
# run description: NCI tumour cell line growth inhibition, 48 h

Please review the entries below; each comes with its answer.
Cc1c(Br)c(Br)c2c3c1nc(N1CCNCC1)n3CCC2: 5.46 µM
CC(=O)CCC[C@@H](C)[C@@H]1O[C@H]([C@@]2(C)CCC(=O)O2)CC2[C@H]1OC(=O)C21CC1 (some centres undefined): > 100 µM
CN(C)CC1CCCC/C1=N\OC(=O)c1ccccc1 (centres undefined): > 100 µM
COc1cccc(N2C(=N)/C(=C3\Nc4ccccc4S3)CC2=O)c1: > 100 µM
Cc1c(C(=O)/C=C/c2ccc([N+](=O)[O-])cc2)[n+](=O)c2ccccc2n1[O-]: > 100 µM

-- ask Given the compound O=[N+]([O-])c1ccc(C2Nn3c(nnc3-c3cccc([N+](=O)[O-])c3)S2)cc1 (centres undefined) , what is its reported TGI?
-- reply > 100 µM

-- ask Queued: C#CC(O)/C=C/C(O)CCCC(O)CC#CC(O)C#CCCCCC(O)/C=C/CCCCCC(=O)CCCCCCCCCCCCCC(O)C(O)C#CC(=O)O (centres undefined)
-- reply > 25 µM

-- ask Queued: CSc1ccccc1NC1=NCCO1
-- reply > 100 µM

-- ask Queued: CCP(C)(=O)CC
-- reply > 100 µM

* * *

# Test system: MCF7 breast
# run description: NCI tumour cell line growth inhibition, 48 h
In this section we review reported TGI values for a set of molecules.

Please review the entries below; each comes with its answer.
CN1C(=O)C(O)CC1c1ccccc1F (stereo unspecified): > 100 µM
Cc1cc(N(C)c2ccccc2)nc(N(C)c2ccccc2)n1: 68.4 µM
CN(C)/C=N/c1cc(=O)n(C)c(=O)n1C: > 100 µM
Oc1c(Cl)cc(Cl)c(Cl)c1Cc1c(O)c(Cl)cc(Cl)c1Cl: 13.9 µM
COc1cc2c(cc1OC)C1CN3CCCC3C(O)C1c1cc(OC)c(OC)cc1-2 (stereo unspecified): > 100 µM

Here is the next item to consider.
-- ask Item CC[C@]1(O)CC2CN(CCc3c([nH]c4ccccc34)C(C(=O)OC)(c3cc4c(cc3OC)N(C=O)[C@H]3[C@@](O)(C(=O)OC)[C@H](OC(C)=O)[C@]5(CC)[C@@H]6C[C@@H]6CN6CC[C@]43[C@@H]65)C2)C1 (stereo partly specified) with MCF7 breast - TGI?
-- reply > 11.7 µM

* * *

# Tested on: SK-MEL-28 melanoma
# run description: NCI tumour cell line growth inhibition, 48 h; in the data active = GI50 below about 0.43 µM; inactive = the rest
Give your call using only these classes: class 1 (active), class 0 (inactive)

COc1cccc(N2C(=N)/C(=C3\Nc4ccccc4S3)CC2=O)c1: class 0

-- ask Per the records of this test, what outcome belongs to Cc1cc(NS(=O)(=O)c2ccc(-c3cnc(C4CC4)o3)cc2)ccc1Cl ?
-- reply class 0

-- ask Queued: O=C(O)C1CC[N-]CC1.O=C(O)C1CC[N-]CC1.[NH2-].[NH2-].[Pt+4]
-- reply class 0

-- ask Queued: O=C(Nc1nc2ccc(OC(F)(F)F)cc2s1)c1ccc(F)cc1
-- reply class 0

-- ask Queued: Cn1ccc(S(=O)(=O)N2CCC[C@H](Nc3nccc(-c4c(-c5cccc(O)c5)nc5occn45)n3)C2)n1
-- reply class 1

-- ask Queued: CC(=O)NC(CCc1ccc(Cl)c(Cl)c1)c1cccc(O)c(=O)c1 (stereo not drawn)
-- reply class 0

-- ask Queued: Oc1c(Cl)cc(Cl)c(Cl)c1Cc1c(O)c(Cl)cc(Cl)c1Cl
-- reply class 0

-- ask Queued: COc1cc(C(=O)/C=C/c2cccnc2Nc2ccc(Cl)cc2)cc(OC)c1OC
-- reply class 0

* * *

# Tested on: SF-539 CNS
# run description: NCI tumour cell line growth inhibition, 48 h
observable: GI50

CC(=O)CCC[C@@H](C)[C@@H]1O[C@H]([C@@]2(C)CCC(=O)O2)CC2[C@H]1OC(=O)C21CC1 (stereo partly drawn): 60600 nM
C/C=C(/C)C(=O)OC1C=C(CO)C(=O)C(OC(=O)C2(C)OC2C)C1C(C)C (stereo not drawn): 1860 nM

-- ask Given the compound CCN1C[C@@H](C)n2c(c(O)c3c(=O)n(Cc4ccc(F)c(Cl)c4)nc(C(=O)NC)c32)C1=O , what is its reported GI50?
-- reply 2320 nM

* * *

# Test system: CAKI-1 renal
# run description: NCI tumour cell line growth inhibition, 48 h
observable: TGI

Please review the entries below; each comes with its answer.
c1ccc(-c2sc(-c3ccccc3)c3c2C(c2ccccc2)c2c(-c4ccccc4)sc(-c4ccccc4)c2C3c2ccccc2)cc1 (stereo not drawn): > 100 µM
O=C(O)c1cc(-c2ccc(-c3ccccc3)cc2)nc2cc3ccccc3cc12: > 100 µM

-- ask Item COc1ccc(/C=C/C(=O)OC2CC34CCNC35CC(OC5(OC)C2OC)c2ccc(OC)c(O)c24)cc1O (stereo not drawn) with CAKI-1 renal - TGI?
-- reply > 100 µM

* * *

In this section we review reported TGI values for a set of compounds.
# Test system: T-47D breast
# run description: NCI tumour cell line growth inhibition, 48 h

S=c1[nH]nc(COc2ccc(Cl)cc2)n1-c1ccccc1: > 100 µM
COC1(OC)CCCCCCCCC(OC)(OC)CCCCCCCC1: > 100 µM
O=C(Cn1c2ccc(Br)cc2c2nc3ccccc3nc21)NNC(=O)NC1CCCCC1: > 100 µM
NC(N)=N/N=C/c1c(-c2ccc([N+](=O)[O-])cc2)nc2sc(Cl)cn12: > 100 µM
COC(=O)c1ccccc1/C=C1\Cc2ccc3c(c2C1=O)CCC3: > 100 µM

Here is the next item to consider.
-- ask Given the compound COC(=O)CSc1cc(Cl)c(C)cc1S(=O)(=O)Nc1n[nH]c(N)n1 , what is its reported TGI?
-- reply > 10 µM

* * *

In this section we review reported TGI values for a set of compounds.
# Test system: UACC-257 melanoma
# run description: NCI tumour cell line growth inhibition, 48 h

Please review the entries below; each comes with its answer.
CCCCNC(=O)CC1=C(C)/C(=C/c2[nH]c(-c3ccc[nH]3)cc2OC)N=C1C: 4.54 µM
COc1ccc(CCn2ccc(C)n2)c(OC)c1: > 100 µM
COC(=O)c1ccccc1/C=C1\Cc2ccc3c(c2C1=O)CCC3: > 100 µM

-- ask Given the compound CC(=O)CCC[C@@H](C)[C@@H]1O[C@H]([C@@]2(C)CCC(=O)O2)CC2[C@H]1OC(=O)C21CC1 (stereo partly specified) , what is its reported TGI?
-- reply > 100 µM

-- ask Queued: O=C(O)CCC1C(=O)C2CCN1CC2 (stereo unspecified)
-- reply > 100 µM

-- ask Queued: O=C(O)c1cc(-c2ccc(-c3ccccc3)cc2)nc2cc3ccccc3cc12
-- reply > 100 µM

-- ask Queued: Cc1cc(C)c([O-])c(-[n+]2c(-c3ccccc3)cc(-c3ccccc3)cc2-c2ccccc2)c1
-- reply 10.1 µM

-- ask Queued: c1ccc(CN2C3C4N(Cc5ccccc5)C2C2N(Cc5ccccc5)C(C(N2Cc2ccccc2)N4Cc2ccccc2)N3Cc2ccccc2)cc1
-- reply > 100 µM

-- ask Queued: Cc1c(CN2CCOCC2)c(CN2CCOCC2)c(C)n1-c1ccc(Cl)cn1
-- reply > 100 µM

-- ask Queued: COc1ccc(/C=C/C(=O)OC2CC34CCNC35CC(OC5(OC)C2OC)c2ccc(OC)c(O)c24)cc1O (stereo unspecified)
-- reply > 100 µM

-- ask Queued: O=C(NNC1=NS(=O)(=O)c2ccccc2N1c1ccccc1)c1cnccn1
-- reply > 100 µM

-- ask Queued: CC(=O)NNc1nc(C)c(C(=O)/C=C/c2ccc(N(C)C)cc2)s1
-- reply > 100 µM

-- ask Queued: O=C1NC(=S)NC(=O)C1=Cc1ccc([N+](=O)[O-])o1
-- reply > 100 µM

-- ask Queued: CCCCN(CCCC)CC(C(=O)Nc1ccc([N+](=O)[O-])cc1[N+](=O)[O-])/C(C)=N\NC(=O)c1ccncc1 (stereo unspecified)
-- reply > 100 µM

-- ask Queued: Oc1c(Cl)cc(Cl)c(Cl)c1Cc1c(O)c(Cl)cc(Cl)c1Cl
-- reply 9.3 µM

-- ask Queued: Cc1[nH]c(N)nc(=S)c1CCCNc1ccccc1
-- reply > 100 µM

-- ask Queued: O=C(NCCc1ccccn1)c1ccc2cc(C(=O)N3CC(CCl)c4ccc([N+](=O)[O-])cc43)[nH]c2c1 (stereo unspecified)
-- reply > 100 µM

-- ask Queued: COC(=O)CSc1cc(Cl)c(C)cc1S(=O)(=O)Nc1n[nH]c(N)n1
-- reply > 10 µM

-- ask Queued: [pH]1p2[pH]p3p1p3[pH]2.c1cc[c]([Ge]([c]2ccccc2)[c]2ccccc2)cc1.c1cc[c]([Ge]([c]2ccccc2)[c]2ccccc2)cc1.c1cc[c]([Ge]([c]2ccccc2)[c]2ccccc2)cc1
-- reply 31.7 µM

-- ask Queued: Nc1ccc(C2(c3ccc(N)cc3)C3CC4CC(C3)CC2C4)cc1
-- reply 36.2 µM

-- ask Queued: C=C(Cl)[C@](Cl)(CBr)CC[C@@H](Br)C(C)(C)Cl
-- reply 2.99 µM

-- ask Queued: COc1ccc(-c2cc(-c3ccc(Cl)cc3)nc(SCCCC(=O)NO)n2)cc1OC
-- reply 4.89 µM

-- ask Queued: Cc1c(Br)c(Br)c2c3c1nc(N1CCNCC1)n3CCC2
-- reply 4.2 µM
